system tested: Genome polyprotein (Hepatitis C virus genotype 1a (isolate 1) (HCV))
Sequence (P26664 1027-1657 limits assumed): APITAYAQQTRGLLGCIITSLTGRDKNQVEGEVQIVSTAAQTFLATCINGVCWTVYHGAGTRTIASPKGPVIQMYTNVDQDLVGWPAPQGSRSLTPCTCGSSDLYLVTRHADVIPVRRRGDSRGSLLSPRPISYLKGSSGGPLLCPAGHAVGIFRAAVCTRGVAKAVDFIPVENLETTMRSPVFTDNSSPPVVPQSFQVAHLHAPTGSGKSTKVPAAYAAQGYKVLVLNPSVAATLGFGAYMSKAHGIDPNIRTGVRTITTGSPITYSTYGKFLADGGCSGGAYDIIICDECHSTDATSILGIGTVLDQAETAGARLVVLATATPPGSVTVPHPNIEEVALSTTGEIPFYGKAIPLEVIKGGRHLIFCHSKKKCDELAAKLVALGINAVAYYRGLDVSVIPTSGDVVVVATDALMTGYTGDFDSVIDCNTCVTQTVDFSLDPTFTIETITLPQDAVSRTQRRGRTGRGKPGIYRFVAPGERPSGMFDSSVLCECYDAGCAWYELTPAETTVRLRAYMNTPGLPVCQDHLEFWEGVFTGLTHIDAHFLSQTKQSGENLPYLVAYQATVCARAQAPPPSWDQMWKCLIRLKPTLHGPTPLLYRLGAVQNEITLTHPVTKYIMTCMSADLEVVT
experiment: Inhibitory concentration against hepatitis C virus NS3 protease (IC50 spans 2.5 log units)
Set-up: species or system Hepacivirus hominis
setup conditions: read-out: Log 1/IC50 (converted)
outcome measure: IC50 (µM)

Completed entries (count: 3):
>>> experimental_result("COc1ccc2nccc(O[C@H]3CC(C(=O)[C@@H](NC(=O)[C@@H](NC(C)=O)C4CCCCC4)C(C)C)[C@H](C(=O)CC4(C(=O)O)CC4)C3)c2c1 (stereo partly drawn)")
15.8
>>> experimental_result("CC(=O)N[C@H](C(=O)N[C@H](C(=O)C1C[C@H](Oc2nccc3ccccc23)C[C@H]1C(=O)CC1(C(=O)O)CC1)C(C)C)C1CCCCC1 (stereo partly drawn)")
7.94
>>> experimental_result("CC(=O)N[C@H](C(=O)N[C@H](C(=O)C1C[C@H](Oc2ccncc2)C[C@H]1C(=O)CC1(C(=O)O)CC1)C(C)C)C1CCCCC1 (stereo partly drawn)")
158

1: CC(=O)Nc1cccc(-c2cccc(O[C@H]3CC(C(=O)[C@@H](NC(=O)[C@@H](NC(C)=O)C4CCCCC4)C(C)C)[C@H](C(=O)CC4(C(=O)O)CC4)C3)c2)c1 (stereo partly drawn)
2: CC(=O)N[C@H](C(=O)N[C@H](C(=O)C1C[C@H](Oc2ccccc2)C[C@H]1C(=O)CC1(C(=O)O)CC1)C(C)C)C1CCCCC1 (stereo partly drawn)
# argmax over IC50 for candidates 1 and 2 Your choice should be expressed through its label. 2
(2: 79.4 µM, 1: 6.31 µM)

1: CC(=O)N[C@H](C(=O)N[C@H](C(=O)C1C[C@H](Oc2ccc(F)cc2)C[C@H]1C(=O)CC1(C(=O)O)CC1)C(C)C)C1CCCCC1 (stereo partly drawn)
2: CC(=O)N[C@H](C(=O)N[C@H](C(=O)C1C[C@H](Oc2ccnc3cc(Cl)ccc23)C[C@H]1C(=O)CC1(C(=O)O)CC1)C(C)C)C1CCCCC1 (stereo partly drawn)
3: CC(=O)N[C@H](C(=O)N[C@H](C(=O)C1C[C@H](Oc2ccc(Br)cc2)C[C@H]1C(=O)CC1(C(=O)O)CC1)C(C)C)C1CCCCC1 (stereo partly drawn)
4: CC(=O)N[C@H](C(=O)N[C@H](C(=O)C1C[C@H](Oc2cccc3cccnc23)C[C@H]1C(=O)CC1(C(=O)O)CC1)C(C)C)C1CCCCC1 (stereo partly drawn)
Rank descending by IC50. The response must list the labels following the requested ordering. 4, 1, 3, 2
(4: 251 µM, 1: 100 µM, 3: 25.1 µM, 2: 2 µM)

a: CC(=O)N[C@H](C(=O)N[C@H](C(=O)C1C[C@H](Oc2nc3ccccc3s2)C[C@H]1C(=O)CC1(C(=O)O)CC1)C(C)C)C1CCCCC1 (stereo partly drawn)
b: CC(=O)N[C@H](C(=O)N[C@H](C(=O)C1C[C@H](Oc2cccc(Br)c2)C[C@H]1C(=O)CC1(C(=O)O)CC1)C(C)C)C1CCCCC1 (stereo partly drawn)
c: COc1ccc(-c2ccc(O[C@H]3CC(C(=O)[C@@H](NC(=O)[C@@H](NC(C)=O)C4CCCCC4)C(C)C)[C@H](C(=O)CC4(C(=O)O)CC4)C3)cc2)cc1 (stereo partly drawn)
Ordering: ascending IC50. The response must list the labels following the requested ordering. a, c, b
(a: 20 µM, c: 31.6 µM, b: 50.1 µM)
